Tested on: Fibroblast
Assay: Multiplex assay against human fibroblast
Assay type: toxicity, cell-based
Details: 24 h, 1 µM, compound concentration 1 uM, replicate 1
Recorded Total Cell Count values for a group of molecules are listed next.

INSERT INTO assay_data (molecule, valuemeasured) VALUES
  ('COc1ccc(S(=O)(=O)N(CCO)c2ccccc2CN(C)C/C=C/c2ccc(Cl)cc2)cc1.O=P(O)(O)O', 264),
  ('Cl.O=c1c2cccn2c2ccccc2n1CCCN1CCC(c2ccc(Cl)cc2)CC1', 121);

The molecule listed as O=C1NC(=O)C(c2cnc3ccccn23)=C1c1cn2c3c(cc(F)cc13)CN(C(=O)N1CCCCC1)CC2 shows Total Cell Count equal to 156

The molecule listed as NC(=O)c1cccc(-c2cc(Nc3ccc(OC(F)(F)F)cc3)ncn2)c1 shows Total Cell Count equal to 194
